Cited source: patent US20230416239A1

Target: IL-4 (Homo sapiens, UniProt P05112)
Sequence (P05112 25-153): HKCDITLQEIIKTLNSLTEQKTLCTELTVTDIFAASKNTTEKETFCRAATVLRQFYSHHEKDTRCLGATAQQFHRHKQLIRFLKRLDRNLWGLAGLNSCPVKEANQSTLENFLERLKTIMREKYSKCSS
Lab note: anything with IC50 below 6 µM is marked yes (1); values at 6 µM or higher are marked no (0).

Worked examples, 5 molecules total:
INSERT INTO results (structure, answer_label) VALUES
  ('CN(CCCCN(Cc1cccnc1F)Cc1cn(S(=O)(=O)c2ccccc2)c2ncccc12)C1CCCCC1', 'no (0)'),
  ('CCN(CC)S(=O)(=O)NCCCCN(Cc1cccnc1F)Cc1cn(S(=O)(=O)c2ccccc2)c2ccccc12', 'no (0)'),
  ('CN(CCCCN(Cc1ccn(S(=O)(=O)c2ccccc2)c1)Cc1cccnc1F)C1CCCCC1', 'no (0)'),
  ('CN(CCCCCN(Cc1cccc(F)n1)Cc1cn(S(=O)(=O)c2ccccc2)c2ccccc12)C1CCCCC1', 'yes (1)'),
  ('O=S(=O)(c1ccccc1)n1cc(CN(CCCCCNC2CCCCC2)Cc2ccncc2)c2ccccc21', 'yes (1)');

stdin: Would you kindly verify if IC50 of `CN(C)S(=O)(=O)NCCCCN(Cc1cccnc1F)Cc1cn(S(=O)(=O)c2ccccc2)c2ccccc12` is strictly less than 6 µM?
stdout: no (0)

stdin: Would you kindly verify if IC50 of `O=S(=O)(c1ccccc1)n1cc(CN(CCCCNC2CCCCC2)Cc2cn(S(=O)(=O)c3ccccc3)c3ccccc23)c2ccccc21` is strictly less than 6 µM?
stdout: yes (1)

stdin: Would you kindly verify if IC50 of `NCCN(Cc1cccnc1)Cc1cn(S(=O)(=O)c2ccccc2)c2ccccc12` is strictly less than 6 µM?
stdout: no (0)

stdin: Would you kindly verify if IC50 of `O=S(=O)(c1ccccc1)n1cc(CN(CCCCCNC2CCCCC2)Cc2cccc(F)n2)c2ccccc21` is strictly less than 6 µM?
stdout: no (0)

---

Measured BINDING IL6 % Neutra at 100 μM of individual entries
target: IL-6 (Homo sapiens); experiment: Immunoassay binding test, IL-6 (gp130 receptor, IL-6Ra present); conditions: IL-6Ra 200 ng/ml
Sequence (P05231 30-212, species assumed): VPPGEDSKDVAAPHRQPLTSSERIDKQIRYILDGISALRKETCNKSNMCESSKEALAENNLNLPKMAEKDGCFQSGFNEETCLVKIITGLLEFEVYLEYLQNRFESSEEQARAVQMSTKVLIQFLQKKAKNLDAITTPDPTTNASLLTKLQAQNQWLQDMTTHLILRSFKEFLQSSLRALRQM
Give a bare numeral; the unit % is implied.

stdin: Would you kindly share the measured BINDING IL6 % Neutra at 100 μM for CN(CCCN(Cc1cccnc1)Cc1cn(-c2cccc(C(F)(F)F)c2)c2ccccc12)C1CCCCC1 [Compound 13] ?
stdout: 8.9

stdin: Would you kindly share the measured BINDING IL6 % Neutra at 100 μM for O=S(=O)(c1ccccc1)n1cc(CN(Cc2ccnc(F)c2)CC2CCCN(C3CCCCC3)C2)c2ccccc21 (stereo not drawn) [Compound 19] ?
stdout: 12.6

stdin: Would you kindly share the measured BINDING IL6 % Neutra at 100 μM for O=S(=O)(NCCCCN(Cc1cccnc1F)Cc1cn(S(=O)(=O)c2ccccc2)c2ccccc12)N1CCCCC1 [Compound 80] ?
stdout: 0

stdin: Would you kindly share the measured BINDING IL6 % Neutra at 100 μM for CCCCN(CCOCCN(Cc1cccnc1F)Cc1cn(S(=O)(=O)c2ccccc2)c2ccccc12)C1CCCCC1 [Compound 99] ?
stdout: 0

stdin: Would you kindly share the measured BINDING IL6 % Neutra at 100 μM for O=S(=O)(c1ccccc1)n1cc(CN(Cc2cccnc2)CC2CCCN(C3CCCCC3)C2)c2ccccc21 (stereo not drawn) [Compound 3] ?
stdout: 5

stdin: Would you kindly share the measured BINDING IL6 % Neutra at 100 μM for CN(CCCCN(Cc1cccc(F)n1)Cc1cn(S(=O)(=O)c2ccccc2)c2ccccc12)C1CCCCC1 [Compound 51] ?
stdout: 0

stdin: Would you kindly share the measured BINDING IL6 % Neutra at 100 μM for CN(CCOCCN(Cc1cccnc1F)Cc1cn(S(=O)(=O)c2ccccc2)c2ccccc12)C1CCCC1 [Compound 105] ?
stdout: 0

stdin: Would you kindly share the measured BINDING IL6 % Neutra at 100 μM for CCN(CCOCCN(Cc1cccnc1F)Cc1cn(S(=O)(=O)c2ccccc2)c2ccccc12)C1CCCCC1 [Compound 93] ?
stdout: 0

stdin: Would you kindly share the measured BINDING IL6 % Neutra at 100 μM for CN(CCCCN(Cc1cccnc1F)Cc1cn(C)c2ccccc12)C1CCCCC1 [Compound 95] ?
stdout: 0

stdin: Would you kindly share the measured BINDING IL6 % Neutra at 100 μM for CN(C)CCCCCN(Cc1cccc(F)n1)Cc1cn(S(=O)(=O)c2ccccc2)c2ccccc12 [Compound 90] ?
stdout: 0

stdin: Would you kindly share the measured BINDING IL6 % Neutra at 100 μM for FC(F)(F)c1cccc(-n2cc(CN(CCCNC3CCCCC3)Cc3ccncc3)c3ccccc32)c1 [Compound 12] ?
stdout: 1.6

stdin: Would you kindly share the measured BINDING IL6 % Neutra at 100 μM for CN(CCOCCN(Cc1cccnc1F)Cc1cn(S(=O)(=O)c2ccccc2)c2ccccc12)C1CCCCC1 [Compound 65] ?
stdout: 0

stdin: Would you kindly share the measured BINDING IL6 % Neutra at 100 μM for CN(CCCCCN(Cc1ccncc1)Cc1cn(S(=O)(=O)c2ccccc2)c2ccccc12)C1CCCCC1 [Compound 35] ?
stdout: −21.5

stdin: Would you kindly share the measured BINDING IL6 % Neutra at 100 μM for CN(CCOCCN(Cc1cccnc1F)Cc1cn(S(=O)(=O)c2ccccc2)c2ccccc12)C1CCCC1 [Compound 104] ?
stdout: 0

stdin: Would you kindly share the measured BINDING IL6 % Neutra at 100 μM for CN(CCCN(Cc1cccnc1)Cc1cn(S(=O)(=O)c2ccccc2)c2ccccc12)C1CCCCC1 [Compound 9] ?
stdout: 21

---

molecular target: IL-13 (Homo sapiens); experiment: Immunoassay binding test, IL-13; settings: 100 μM
Sequence (P35225 25-146, species assumed): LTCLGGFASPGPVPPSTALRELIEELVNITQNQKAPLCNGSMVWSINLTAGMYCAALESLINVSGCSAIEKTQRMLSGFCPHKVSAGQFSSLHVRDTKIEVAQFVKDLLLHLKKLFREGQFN
Measured BINDING IL13 % Neutra at 100 μM of individual entries
Give a bare numeral; the unit % is implied.

INSERT INTO results (molecule, test_result) VALUES
  ('O=S(=O)(c1ccccc1)n1cc(CN(Cc2ccnc(F)c2)CC2CCCN(C3CCCCC3)C2)c2ccccc21 (stereo not shown) [Compound 19]', 98.1),
  ('O=C(NCCCCN(Cc1cccnc1F)Cc1cn(S(=O)(=O)c2ccccc2)c2ccccc12)N1CCOCC1 [Compound 84]', 0),
  ('CCN(CCOCCN(Cc1cccnc1F)Cc1cn(S(=O)(=O)c2ccccc2)c2ccccc12)C1CCCCC1 [Compound 93]', 91.3);

API: the following record is the query input.
stdin: Would you kindly share the measured BINDING IL13 % Neutra at 100 μM for FC(F)(F)c1cccc(-n2cc(CN(CCCCNC3CCCCC3)Cc3ccncc3)c3ccccc32)c1 [Compound 22] ?
stdout: 95.2

---

target: TNFα (Homo sapiens)
Sequence (P01375 77-233 limits assumed, species assumed): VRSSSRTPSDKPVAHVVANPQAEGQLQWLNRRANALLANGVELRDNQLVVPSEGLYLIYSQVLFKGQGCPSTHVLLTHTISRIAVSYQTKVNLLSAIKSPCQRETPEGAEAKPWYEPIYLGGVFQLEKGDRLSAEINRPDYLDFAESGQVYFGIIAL
Lab note: anything with IC50 below 10 µM is marked T; values at 10 µM or higher are marked F.

INSERT INTO assay_data (compound, answer_label) VALUES
  ('CN(CCCN(Cc1ccncc1)Cc1cn(S(=O)(=O)c2ccccc2)c2ccccc12)C1CCCCC1', 'T'),
  ('NCCCCN(Cc1cn(S(=O)(=O)c2ccccc2)c2ccccc12)Cc1cn(S(=O)(=O)c2ccccc2)c2ccccc12', 'F');

stdin: Would you kindly verify if IC50 of `O=S(=O)(NCCCCN(Cc1cccnc1F)Cc1cn(S(=O)(=O)c2ccccc2)c2ccccc12)N1CCCCCC1` is strictly less than 10 µM?
stdout: F

stdin: Would you kindly verify if IC50 of `O=S(=O)(c1ccccc1)n1cc(CN(CCCCNC2CCC2)Cc2cccnc2F)c2ccccc21` is strictly less than 10 µM?
stdout: F

stdin: Would you kindly verify if IC50 of `FC(F)(F)c1cccc(-n2cc(CN(CCCNC3CCCCC3)Cc3ccncc3)c3ccccc32)c1` is strictly less than 10 µM?
stdout: T

---

biological target: IL-4 (Homo sapiens); assay: Immunoassay binding test, IL-4; details: 100 μM
quantity.measured: BINDING IL4 % Neutra at 100 μM (%)
Give a bare numeral; the unit % is implied.

stdin: Query BINDING IL4 % Neutra at 100 μM on IL-4 (Homo sapiens) for `O=[N+]([O-])c1ccccc1S(=O)(=O)NCCCN(Cc1cccnc1)Cc1cn(S(=O)(=O)c2ccccc2)c2ccccc12`
stdout: 36.4

stdin: Query BINDING IL4 % Neutra at 100 μM on IL-4 (Homo sapiens) for `CN(CCCCCN(Cc1cccnc1)Cc1cn(S(=O)(=O)c2ccccc2)c2ccccc12)C1CCCCC1`
stdout: 97.4

stdin: Query BINDING IL4 % Neutra at 100 μM on IL-4 (Homo sapiens) for O=S(=O)(c1ccccc1)n1cc(CN(Cc2ccncc2)CC2CCCN(C3CCCCC3)C2)c2ccccc21 (stereo not shown)
stdout: 96.9

stdin: Query BINDING IL4 % Neutra at 100 μM on IL-4 (Homo sapiens) for `CN(CCCCN(Cc1cccc(F)n1)Cc1cn(S(=O)(=O)c2ccccc2)c2ccccc12)C1CCCCC1`
stdout: 87.2
